Values from patent US10668020B1

- procedure_summary: Phase solubility study and thermodynamic parameter of solubility in aqueous PVP-VA64 solution
- Assay type: physicochemical
- assay_conditions: VPN with PVP-VA-64, 37° C., 1:1 complex assumed
readout_name: stability constant Kst (mL/mg)
The answer is to be given in mL/mg; state only the numeric part.

Which stability constant Kst is listed for `CCOC(=O)C1=C[C@]2(CC)CCCN3CCc4c(n1c1ccccc41)[C@@H]32` ?
7

====

- procedure_summary: Equilibrium saturation solubility and solubilization efficiency
- Format: physicochemical
- assay_conditions: distilled water, thermodynamic from solid; pure drug, water at 25° C.; read-out: solubility of VPN in water
readout_name: solubility at 48 h

Which solubility at 48 h is listed for CCOC(=O)C1=C[C@]2(CC)CCCN3CCc4c(n1c1ccccc41)[C@@H]32 [Vinpocetine] ?
2.31 µg/mL
